MEASUREMENT_PROTOCOL: NCI Yeast Anticancer Drug Screen. Data for the mec2-1 strain (AID 157)
CONDITION_LABEL: S. cerevisiae mec2-1 strain, at 50.0 µM, active compounds read high
About 79,000 compounds went through this panel and 15% of them were active in at least one assay; those are over-represented in the sample as a whole.
A collection of molecules and their measured growth inhibition
Numeric only. Scale: %

Solved cases below.
## Input # growth inhibition lookup, item `C[C@H]1C/C=C/[C@H]2[C@@H]3O[C@]3(C)[C@@H](C)[C@H]3[C@H](Cc4ccccc4)NC(=O)[C@]32OC(=O)O/C=C/[C@@](C)(O)C1=O`
## Output 91.3

## Input # growth inhibition lookup, item c1ccc2c(c1)[As]=c1ccccc1=[As]2 (stereo not drawn)
## Output 91.5

Would you kindly look at the next entry?
## Input # growth inhibition lookup, item CC(=O)NC1C(S[As](C)C)OC(COC(C)=O)C(OC(C)=O)C1OC(C)=O (stereo not drawn)
## Output 92.4

###

MEASUREMENT_PROTOCOL: NCI Yeast Anticancer Drug Screen. Data for the rad50 strain (AID 155);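 further: 0% = growth of vehicle-only cultures of the same strain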
CONDITION_LABEL: S. cerevisiae rad50 strain growth inhibition; at 5.0 µM (retest, dose inferred, filed as 0.5); active compounds read high
About 79,000 compounds went through this panel and 15% of them were active in at least one assay; those are over-represented in the sample as a whole.
A collection of molecules and their measured growth inhibition
Numeric only. Scale: %

## Input # growth inhibition lookup, item `CCOCCOC(=O)Cc1ccccc1`
## Output 5

## Input # growth inhibition lookup, item `CC[PH+](CC)CC.CC[PH+](CC)CC.[Au]`
## Output 22

## Input # growth inhibition lookup, item `COC1=CC(C)(C)C=C([Se][Se]C2=CC(C)(C)C=C(OC)C2=O)C1=O`
## Output 82

## Input # growth inhibition lookup, item `O=C(O)Cc1ccc2c(c1)OCO2.[Ag]`
## Output 99

## Input # growth inhibition lookup, item `CCC[CH2][Sn]([CH2]CCC)([S]C1=NCCS1)[S]C1=NCCS1`
## Output 96

## Input # growth inhibition lookup, item O=P(Nc1cccc(Cl)c1)(Oc1ccccc1)N(CCCl)CCCl (stereo unspecified)
## Output 40

## Input # growth inhibition lookup, item `S=C1NC2(CCCCC2)NC12CCCCC2`
## Output 11

## Input # growth inhibition lookup, item `Oc1ccc2ccccc2c1O`
## Output 13

## Input # growth inhibition lookup, item `Cc1ccc(C(=O)CCl)o1`
## Output -114

## Input # growth inhibition lookup, item `O=C(O)CCCOc1cc(Cl)c(Cl)cc1Cl`
## Output 40

Would you kindly look at the next entry?
## Input # growth inhibition lookup, item `CC[C@](O)(C(=O)O)c1cc2n(c(=O)c1CO)Cc1cc3ccccc3nc1-2`
## Output 97

###

MEASUREMENT_PROTOCOL: NCI Yeast Anticancer Drug Screen. Data for the bub3 strain (AID 167)
CONDITION_LABEL: S. cerevisiae bub3 mutant strain, at 50.0 µM, active compounds read high
Compounds without any hit were thinned out: in the full panel of roughly 79,000, 15% have a hit.
We use 90% as the dividing line for growth inhibition: on or above the line is Fulfilled, below is Not fulfilled.

The following molecules have reported results that may help.
## Input Reported growth inhibition reaches at least 90% for `O=C(N/N=C/c1ccc(F)cc1)c1ccc(N(CCCl)CCCl)cc1` ?
## Output Not fulfilled

## Input Reported growth inhibition reaches at least 90% for `CCCCCCCCC(=O)[O][Hg][c]1ccccc1` ?
## Output Fulfilled

## Input Reported growth inhibition reaches at least 90% for CNC(=O)OCC1C2=C(C(=O)C(C)=C(N)C2=O)N2CC3C(N3C)C12OC (stereo not drawn) ?
## Output Not fulfilled

## Input Reported growth inhibition reaches at least 90% for `[Cl][Hg][Cl]` ?
## Output Fulfilled

## Input Reported growth inhibition reaches at least 90% for O=C(c1ccccc1)C1CCCN(CCc2ccccc2)C1 (stereo not drawn) ?
## Output Not fulfilled

## Input Reported growth inhibition reaches at least 90% for `Nc1nnc(N)n1-n1c(N)nnc1N` ?
## Output Not fulfilled

## Input Reported growth inhibition reaches at least 90% for `O=C(O)CCCOc1cc(Cl)c(Cl)cc1Cl` ?
## Output Not fulfilled

## Input Reported growth inhibition reaches at least 90% for `O=c1c[n+](-c2ccc[nH+]c2)[nH]o1.[Cl][Hg][Cl]` ?
## Output Fulfilled

## Input Reported growth inhibition reaches at least 90% for `C[As](c1ccc(Br)cc1)c1ccc(Br)cc1` ?
## Output Not fulfilled

## Input Reported growth inhibition reaches at least 90% for `CC(C)(C)C1=CC(=C/C=C/c2cc(C(C)(C)C)[o+]c(C(C)(C)C)c2)C=C(C(C)(C)C)O1` ?
## Output Fulfilled

***
## Input Reported growth inhibition reaches at least 90% for c1cc2c(cc1C1OC[C@H]3[C@@H](c4ccc5c(c4)OCO5)OC[C@@H]13)OCO2 (stereo partly drawn) ?
## Output Not fulfilled

## Input Reported growth inhibition reaches at least 90% for `CCC[CH2][Sn]1([CH2]CCC)[O]C(=O)c2cccc(C)c2[O]1` ?
## Output Fulfilled

## Input Reported growth inhibition reaches at least 90% for CC1(C)OC2OC3C(CN(CCCl)Cc4ccccc4)OC(c4ccccc4)OC3C2O1 (stereo not drawn) ?
## Output Not fulfilled

## Input Reported growth inhibition reaches at least 90% for `Cc1cc(N(CCCl)CCCl)ccc1CN1CCCN(Cc2ccc(N(CCCl)CCCl)cc2C)C1c1ccc(N(CCCl)CCCl)cc1C` ?
## Output Fulfilled

## Input Reported growth inhibition reaches at least 90% for CCCCC1CCCCCCc2[nH]c(/C=C3\N=C(c4ccc[nH]4)C=C3OC)cc21 (stereo not drawn) ?
## Output Not fulfilled

###

MEASUREMENT_PROTOCOL: NCI Yeast Anticancer Drug Screen. Data for the mlh1 rad18 strain (AID 175)
CONDITION_LABEL: S. cerevisiae mlh1 rad18 strain growth inhibition; at 50.0 µM (retest, dose inferred, filed as 5.0); active compounds read high
The panel holds about 79,000 compounds, 15% with a hit somewhere; the sample as a whole holds those more often.
A collection of compounds and their measured growth inhibition
Numeric only. Scale: %

Solved cases below.
## Input # growth inhibition lookup, item CCOC(=O)C1([Se]c2ccccc2)CCCC1=O (stereo unspecified)
## Output 87

## Input # growth inhibition lookup, item `CCC[CH2][Sn][Cl]`
## Output 98

## Input # growth inhibition lookup, item `N#Cc1ccc([Se]c2ccccc2)cc1`
## Output 97

## Input # growth inhibition lookup, item CC1CCOC(=O)/C=C/C=C/C(=O)OC2CC3OC4C5OC5(C)C(O)CC4(COC(=O)C1O)C2(C)C31CO1 (stereo unspecified)
## Output 94

## Input # growth inhibition lookup, item O=C(c1ccccc1)c1c(CC(O)c2ccncc2)n(C(=O)c2ccccc2)c2ccccc12 (stereo unspecified)
## Output 95

***
## Input # growth inhibition lookup, item CCCCN(C)CC(C(C)=O)C(c1ccccc1)c1c(O)c2ccccc2oc1=O (stereo unspecified)
## Output 22

## Input # growth inhibition lookup, item CCOC(=O)C1C2c3ccccc3C(c3ccccc32)C1C(=O)OCC (stereo unspecified)
## Output 87

## Input # growth inhibition lookup, item `COC1=C(N2CC2)C(=O)C(OC)=C(N2CC2)C1=O`
## Output 98

## Input # growth inhibition lookup, item CCN(Cc1ccccc1)CC(O)c1ccc(Cl)c(Cl)c1 (stereo unspecified)
## Output 99

## Input # growth inhibition lookup, item O=C(Nc1ccccc1)OC(C[N+](=O)[O-])C(Cl)(Cl)Cl (stereo unspecified)
## Output 99

## Input # growth inhibition lookup, item COc1ccc2c(c1O)C13CCN(C)C(C2)C12C=CC(=O)C3c1c(O)ccc(O)c12 (stereo unspecified)
## Output 88

## Input # growth inhibition lookup, item CC(=O)OC1C(=O)OCC23CCC4(C)OC4C2OC2CC(OC(=O)/C=C/C=C/C(=O)OCCC1C)C3(C)C21CO1 (stereo unspecified)
## Output 99

## Input # growth inhibition lookup, item `CC(=O)O/C(=C1\C[C@H]2[C@@H]3CC=C4C[C@@H](OC(C)=O)CC[C@]4(C)[C@H]3CC[C@]2(C)C1=O)C(F)(F)F`
## Output 9

## Input # growth inhibition lookup, item COC(=O)C1=C(O)C(C(=O)OC)[C@]2(O)[C@@H](C(=O)OC)[C@H]1C[C@@H](c1ccccc1)[C@@H]2C(=O)OC (stereo partly specified)
## Output 98

## Input # growth inhibition lookup, item `ClC1=C(Cl)C(Cl)(Cl)SS1`
## Output 99

## Input # growth inhibition lookup, item `c1ccc(P(CC[As](c2ccccc2)c2ccccc2)CC[As](c2ccccc2)c2ccccc2)cc1`
## Output 80

###

MEASUREMENT_PROTOCOL: NCI Yeast Anticancer Drug Screen. Data for the bub3 strain (AID 167)
CONDITION_LABEL: S. cerevisiae bub3 mutant strain, at 50.0 µM
This is part of a sample that, as a whole, favours compounds with a hit. Of some 79,000 tested, about 15% had one in any assay. Activity calls are given as the source filed them. No stated cut-off is given here; in the data, active means growth inhibition above about 70%; inactive means the rest.
Would you mind answering with one of these outcomes? active, inactive

The following compounds have reported results that may help.
## Input Record lookup: outcome of this test for C/C(CCl)=N/NC1=NC(c2ccccc2Cl)P(=O)(NCCCNP2(=O)SC(N/N=C(/C)CCl)=NC2c2ccccc2Cl)S1 (configuration not stated) ?
## Output active

## Input Record lookup: outcome of this test for CC/C(=C(/CC)c1ccc(OP(N)(=O)N(CCCl)CCCl)cc1)c1ccc(OP(N)(=O)N(CCCl)CCCl)cc1 (configuration not stated) ?
## Output inactive

## Input Record lookup: outcome of this test for `O=C1C=CC(=O)C1(Br)Br` ?
## Output active

## Input Record lookup: outcome of this test for `CCc1ccc([O-])c(C=NCCCN(C)CCCN=Cc2cc(C)ccc2[O-])c1.[Co+3].[N-]=[N+]=[N-]` ?
## Output inactive

## Input Record lookup: outcome of this test for `O=[N+]([O-])/C=C/c1ccccc1` ?
## Output active

Note: attention shifts to another entry.
## Input Record lookup: outcome of this test for O=C1C=CC(=O)N1c1cccc2ccccc12 (tested in a mixture with another compound) ?
## Output inactive
